Target: T1, Rhesus-ICAM1 (rhesus, UniProt Q5NKV6 28-480, limits assumed)
T1 sequence (looked up): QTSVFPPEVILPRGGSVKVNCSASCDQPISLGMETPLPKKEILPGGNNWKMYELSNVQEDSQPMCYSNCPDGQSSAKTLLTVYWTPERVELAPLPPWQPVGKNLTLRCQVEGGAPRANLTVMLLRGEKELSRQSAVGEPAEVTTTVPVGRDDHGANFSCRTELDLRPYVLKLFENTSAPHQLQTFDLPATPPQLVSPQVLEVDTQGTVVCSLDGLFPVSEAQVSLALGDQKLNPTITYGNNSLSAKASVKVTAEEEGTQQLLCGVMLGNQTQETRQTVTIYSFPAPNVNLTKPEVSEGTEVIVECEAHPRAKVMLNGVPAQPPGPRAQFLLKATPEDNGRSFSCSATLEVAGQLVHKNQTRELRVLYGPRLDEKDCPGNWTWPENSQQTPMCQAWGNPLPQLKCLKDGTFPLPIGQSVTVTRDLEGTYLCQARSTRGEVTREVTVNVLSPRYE
Experiment: SPR (Biacore 8K), antibody captured, antigen injected

- binder: "8E5 (antibody, human IgG1, kappa, V domains shown, Rabbit-human chimeric anti-ICAM1: rabbit VH and VL on human IgG1 and kappa constant regions) VH: QSLEESGGRLVTPGTPLTLTCTVSGFSLSNYAMNWVRQAPGKGLEWIGYISTRGSAYYASWAKGRFTISKTSTTVDLKMTSPTTEDTATYFCARGDLVGGGYIRGSFDPWGPGTLVTVSS VL: AQVLTQTPSPVSAAVGGTVTINCQSSQSVVSDKLLSWFQQKPGQPPKLLIYGASTLASGVPSRFKGSGSGTQFTLTISDVQSDDAATYYCAGAYSTDSDIRAFGGGTEVVVKR"
  Kd / nM: 7.06
- binder: "16E4 (antibody, human IgG1, kappa, V domains shown, Rabbit-human chimeric anti-ICAM1: rabbit VH and VL on human IgG1 and kappa constant regions) VH: QSVEESGGRLVTPGTPLTLTCTVSGFSLSSHAMGWVRQAPGKGLQYIGIIGSSGSTYYASWAKGRFTISKTSTTVDLRLTSPTTEDTATYFCVRDPYDSFGDAYRLWGPGTLVTVSS VL: AYDMTQTPASVEVAVGGTVTIKCQASQSIYSYCSWYQQKPGQRPKFLIYDASKLASGVPSRFKGSGSGTEFTLTISGMQSDDAATYYCQQAYSSSNVDNAFGGGTEVVVKR"
  Kd / nM: 0.54
- binder: "8H1 (antibody, human IgG1, kappa, V domains shown, Rabbit-human chimeric anti-ICAM1: rabbit VH and VL on human IgG1 and kappa constant regions) VH: QSVEESGGRLVTPGTPLTLTCTASGFSLSNYYMSWVRQAPGKGLEWIGIISDSGSTYYASWAKGRFTISKTSTTVDLKITSPTTEDTATYFCARDWSYDSSSGYYYYDMDLWGPGTLVTVSA VL: GYDMTQTPASVEVAVGGTVTIKCQASQSINSWLAWFQHKPGQPPKRLIYKASTLASGVSSRFKGSGSGTQFTLTISGVESADAATYYCQQGYSRSDGEHVFGGGTEVVVKR"
  Kd / nM: 2.92
- binder: "14B3 (antibody, human IgG1, kappa, V domains shown, Rabbit-human chimeric anti-ICAM1: rabbit VH and VL on human IgG1 and kappa constant regions) VH: QSLEESGGDLVKPGASLTLTCTASGFSSSSGYYICWVRQAPGKGLEWIACIGAGSGAAYYASWAKGRFTMSKTSSTTVTLQMTSLTAADTATYFCARGGFVVGGGYGGYCFNLWGPGTLVTVSS VL: AQVLTQTASSVSATVGGTVTISCQSSESVDVNNLAWYQQKPGQPPKLLIYSASTLASGVPSRFKGSGSGTQFTLTVSDLESADAATYYCAGGYSGNIFAFGGGTAVVVKR"
  Kd / nM: 3.2
- binder: "11G7 (antibody, human IgG1, kappa, V domains shown, Rabbit-human chimeric anti-ICAM1: rabbit VH and VL on human IgG1 and kappa constant regions) VH: QSVEESGGRLVTPGTPLTLTCTVSGFSLSDYYMSWVRQAPGKGLEWIGIISDSGSTYYASWAKGRFTISKTSSTTVDLKITSPTTEDTATYFCARDWSYDSSSGYYYYDMDLWGPGTLVTVSA VL: AYDMTQTPASVEVAVGGTVTIKCQASQSINSWLSWFHQKPGQPPKRLIYKASTLASGVSSRFKGSGSGTQFTLTISGVESADAATYYCQQGYSRSDGEHVFGGGTEVVVKR"
  Kd / nM: 4.28
- binder: "5B12 (antibody, human IgG1, kappa, V domains shown, Rabbit-human chimeric anti-ICAM1: rabbit VH and VL on human IgG1 and kappa constant regions) VH: QSLEESGGRLVTPGTPLTLTCTVSGFSLSSYGMSWVRQAPGKGLEYIGWISFSGSAYYANWAKGRFTISKTSTTVDLKITSPTTEDTATYFCARGGDYGGSTYILNLWGPGTLVTVSS VL: AFELTQTPSSVEAAVGGTVTIKCQASESIDSYLSWYQQKPGQPPKLLIYAASTLASGVSSRFKGSGSGTEFTLTISDLESADAATYYCQSYSGTITTSGGAFGGGTEVVVKR"
  Kd / nM: 8.2

Just for reference, patent US20220002432A1 is where these values come from.
